- Assay system: human M1 receptor (hCHRM1) (Homo sapiens)
- Construct: expressed in transfected cells; host or cells: CHO-K1
- Sequence (P11229 1-460): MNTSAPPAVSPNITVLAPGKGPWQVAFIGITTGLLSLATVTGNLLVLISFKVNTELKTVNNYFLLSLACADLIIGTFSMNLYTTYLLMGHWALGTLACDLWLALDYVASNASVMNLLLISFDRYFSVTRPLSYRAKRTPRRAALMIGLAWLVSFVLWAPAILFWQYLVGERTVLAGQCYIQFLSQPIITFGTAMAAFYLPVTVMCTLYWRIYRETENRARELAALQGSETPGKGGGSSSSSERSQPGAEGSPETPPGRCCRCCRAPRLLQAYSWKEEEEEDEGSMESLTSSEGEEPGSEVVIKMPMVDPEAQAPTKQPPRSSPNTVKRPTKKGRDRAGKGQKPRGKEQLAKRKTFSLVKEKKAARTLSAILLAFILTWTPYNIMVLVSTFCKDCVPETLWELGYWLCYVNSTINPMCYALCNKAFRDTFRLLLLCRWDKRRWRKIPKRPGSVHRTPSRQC
- Run description: Measurement of cholinergic muscarinic M1 receptor positive allosteric modulator (M1PAM) activity, calcium fluorescence (FLIPRtetra)
- Type: cell-based
- Condition label: inflection point of the concentration-dependent curve, with acetylcholine at EC20 (final 0.6 nM); CHO-K1 cells expressing hCHRM1; read-out: IP value
pEC50: −log10 of the molar value.
Experimental endpoint: pEC50

                                    compound  experimental_endpoint  reported_value
 0  COc1ccc(Cn2nc(C(=O)N[C@H]3CCCC[C@@H]3O)c(=O)c3ccccc32)cc1 [Example 51]                  pEC50            7.17
 1  COc1ccc(Cn2cc(C(=O)NC3CCCCC3CO)c(=O)c3c(F)ccc(F)c32)cc1 (racemic) [Example 65]                  pEC50            6.38
 2  NC(=O)c1ccc(Cn2nc(C(N)=O)c(=O)c3ccccc32)cc1 [Example 73]                  pEC50            7.20
 3  COc1ccc(Cn2cc(C(=O)NC3CC3)c(=O)c3c(F)ccc(F)c32)cc1 [Example 8]                  pEC50            5.70
 4  COc1ccc(Cn2nc(C(=O)N[C@@H]3CCCC[C@H]3O)c(=O)c3ccccc32)cc1 [Example 52]                  pEC50            5.72
 5  COc1ccc(Cn2nc(C(=O)N[C@H]3CCOC[C@@H]3O)c(=O)c3ccccc32)cc1 (racemic) [Example 71]                  pEC50            7.80
 6  COc1ccc(Cn2cc(C(=O)NN3CCCCC3)c(=O)c3c(F)ccc(F)c32)cc1 [Example 21]                  pEC50            6.55
 7  COc1ccc(Cn2cc(C(N)=O)c(=O)c3c(F)ccc(F)c32)cc1 [Example 1]                  pEC50            6.20
 8  CNC(=O)c1cn(Cc2ccc(OC)cc2)c2c(F)ccc(F)c2c1=O [Example 7]                  pEC50            5.46
 9  O=C(N[C@H]1CCCC[C@@H]1O)c1nn(Cc2ccc(-n3cccn3)cc2)c2ccccc2c1=O (racemic) [Example 4]                  pEC50            7.57
10  COc1ccc(Cn2cc(C(=O)NCCO)c(=O)c3c(F)ccc(F)c32)cc1 [Example 17]                  pEC50            5.24
11  NC(=O)c1ccc(Cn2nc(C(=O)N[C@H]3CCCC[C@@H]3O)c(=O)c3ccccc32)cc1 (racemic) [Example 75]                  pEC50            8.11
12  COCCNC(=O)c1cn(Cc2ccc(OC)cc2)c2c(F)ccc(F)c2c1=O [Example 20]                  pEC50            5.30
13  CC(F)(F)c1ccc(Cn2cc(C(=O)N[C@H]3CCCC[C@@H]3O)c(=O)c3ccccc32)cc1 (racemic) [Example 82]                  pEC50            6.77
14  COc1ccc(Cn2cc(C(=O)N[C@H]3CCC[C@@H]3O)c(=O)c3c(F)ccc(F)c32)cc1 (racemic) [Example 25]                  pEC50            6.72
15  COc1ccc(Cn2cc(C(=O)NC3CCCCC3)c(=O)c3c(F)ccc(F)c32)cc1 [Example 14]                  pEC50            6.04
16  COc1ccc(Cn2cc(C(=O)NN)c(=O)c3ccccc32)cc1 [Example 13]                  pEC50            5.21

###

- Run description: Central migration (Kp value) measurement test
- Assay type: in vivo
- Condition label: male, Jcl ICR, mouse, brain/plasma, po, 1 mg/kg; mice, 1 mg/10 mL/kg, sampling time 1 hr; ratio of intracerebral (μg/g) to plasma (μg/mL) concentration
Entries and their Kp at 1 h
Experimental endpoint: Kp at 1 h

                                   molecule  reported_value
0  Cc1nn(C)cc1-c1ccc(Cn2cc(C(=O)N[C@H]3CCC[C@@H]3O)c(=O)c3ccccc32)cc1 (racemic) [Example 94]            0.03
1  O=C(N[C@H]1CCC[C@@H]1O)c1cn(Cc2ccc(-n3cccn3)cc2)c2c(F)cccc2c1=O (racemic) [Example 92]            0.16

These data points were gathered from patent US9403802B2.
